Data origin: PubChem BioAssay (NCI)

tested on: EKVX NSCLC; assay: NCI tumour cell line growth inhibition, 48 h
Could you please report measured log10 of TGI for the items listed next?
Hi team, quick reminder: these entries are log10 of TGI (µM).

# molecule O=C(CC1(O)C(=O)Nc2c(Cl)cc(Cl)cc21)c1ccc2ccccc2c1 (stereo not given) ; its log10 of TGI = 1.37

# molecule Cc1ccc2sc3c(NCCCNCCO)nc4ccccc4c3c(=O)c2c1 ; its log10 of TGI = 0.49

# molecule CCN(CC)c1ccc2c(c1)N=C1N=CC=CN1C2(c1ccc(N(C)C)cc1)c1ccc(N(C)C)cc1 ; its log10 of TGI = 1.38

# molecule CCCCCCCCCC(=O)OCC1OC(n2cc(F)c(=O)[nH]c2=O)C(N)C(OC(=O)CCCCCCCCC)C1O (stereo not given) ; its log10 of TGI = 1.53

# molecule CO[C@H]1CC[C@@]2(C)C(=CC[C@H]3[C@@H]4C[C@H](O)C[C@@]4(C)CC[C@@H]32)C1 ; its log10 of TGI = 1.46

# molecule O=C1/C(=C/c2ccc(Cl)cc2)CN(C(=O)C(Cl)Cl)C/C1=C\c1ccc(Cl)cc1 ; its log10 of TGI = 0.01

====

Could you please report measured GI50 for the items listed next?

Record for Cc1ccc(NC(=O)c2ccnc(N3CCCC3)c2)cc1-c1ccc(C(=O)NCC2CC2)cc1 under target or system MDA-MB-435: GI50 reported as > 25000 nM

Record for COc1cnc2c(c1)C(=O)c1c-2n(CCCN2CCN(C)CC2)c(=O)c2cc(Cl)ccc12 under target or system MDA-MB-435: GI50 reported as 1530 nM

Record for CCNc1nc(N2CC(=O)Nc3cc(OC)ccc32)c2ccccc2n1 under target or system MDA-MB-435: GI50 reported as 0.193 nM

Record for CO[C@H]1CC[C@@]2(C)C(=CC[C@H]3[C@@H]4C[C@H](O)C[C@@]4(C)CC[C@@H]32)C1 under target or system MDA-MB-435: GI50 reported as 1260 nM

Record for COc1ccc(Nc2ccnc(NCCCNc3ccnc4cc(Cl)ccc34)n2)cc1 under target or system MDA-MB-435: GI50 reported as 243 nM

Record for CO[C@H](C(=O)N[C@@H](CCCCNC(=O)OCc1ccccc1)C(=O)OC(C)(C)C)[C@@H]1Cc2cc3cc(OC4CC(OC5CC(O)C(O)C(C)O5)C(O)C(C)O4)c(C)c(O)c3c(O)c2C(=O)[C@H]1OC1CC(OC2CC(OC3CC(C)(O)C(O)C(C)O3)C(O)C(C)O2)C(O)C(C)O1 (stereo not given in full) under target or system MDA-MB-435: GI50 reported as 805 nM

Record for COc1cc2c3c(n(C4CCNCC4)c(=O)c2cc1OC)-c1cc2c(cc1C3=O)OCO2 under target or system MDA-MB-435: GI50 reported as 1190 nM

Record for O=C1/C(=C/c2ccc(Cl)cc2)CN(C(=O)C(Cl)Cl)C/C1=C\c1ccc(Cl)cc1 under target or system MDA-MB-435: GI50 reported as 194 nM

Record for COc1cc2c(cc1OC)[C@@]1(C)C(=O)c3cc4c(cc3[C@H]1N(C)C2=O)OCO4 under target or system MDA-MB-435: GI50 reported as > 100000 nM

Record for C#C[C@@]1(O)[C@@H](CO)O[C@@H](n2cc(F)c3c(N)ncnc32)[C@@H]1O under target or system MDA-MB-435: GI50 reported as 416 nM

Record for Cc1cc(C)nc(SC2=C(Nc3cccc(Cl)c3)C(=O)N(Cc3ccccc3)C2=O)n1 under target or system MDA-MB-435: GI50 reported as > 170000 nM

Record for [N-]=[N+]=CC(=O)OCC(N)C(=O)O (stereo not given) under target or system MDA-MB-435: GI50 reported as 457 nM

Record for CC/C(=C(\CC)c1ccc(OCCN(CC)CC)cc1)c1ccc(OCCN(CC)CC)cc1 under target or system MDA-MB-435: GI50 reported as 1860 nM

Record for O=C(Cn1ccnc1[N+](=O)[O-])NCC(F)(F)C(F)(F)F under target or system MDA-MB-435: GI50 reported as > 100000 nM

Record for CC(=O)OCC1OC(S[As](C)C)C(OC(C)=O)C1OC(C)=O (stereo not given) under target or system MDA-MB-435: GI50 reported as 67.2 nM

====

test system: HCT-116 colon; assay: NCI tumour cell line growth inhibition, 48 h
assay_metric: TGI

# molecule COc1ccccc1NC(=O)C1=C(C)NC(C)=C(C(=O)Nc2ccccc2OC)C1c1ccccc1OC ; its TGI = > 100 µM

# molecule O=C(O)C(Br)Cc1ccc2c(c1)OCO2 (stereo not given) ; its TGI = > 100 µM

# molecule CC1C2=CC=C(O2)C(C)(C)C2=CC=C(O2)C(C)(C)C2=CC=C(O2)C(C)(C)C2=CC=C1O2 ; its TGI = > 100 µM

# molecule Cc1n[nH]c(=O)n1/N=C/c1cccnc1 ; its TGI = > 100 µM

# molecule CCN(CC)c1ccc2c(c1)N=C1N=CC=CN1C2(c1ccc(N(C)C)cc1)c1ccc(N(C)C)cc1 ; its TGI = 11.8 µM

# molecule COc1ccc(C(=O)N2CCN(c3ccc4[nH]c(=O)oc4c3)CC2)cc1 ; its TGI = > 100 µM

# molecule COc1cc2c3c(c4cc(OC)c(OC)cc4c2cc1OC)[C@H](O)[C@@H]1CCCN1C3 ; its TGI = 7.64 µM

# molecule Cc1ccccc1NC(=O)/C(C#N)=N\Nc1nc[nH]c1C(N)=O ; its TGI = > 100 µM

# molecule O=C(NCC#CCO)C(F)(F)F ; its TGI = > 100 µM

# molecule COC(=O)/C(=C/CC(N=C(c1ccccc1)c1ccccc1)C(=O)OC)N=C(c1ccccc1)c1ccccc1 (stereo not given) ; its TGI = > 100 µM

====

tested on: MCF7 breast; experiment: NCI tumour cell line growth inhibition, 48 h
Could you please report measured TGI for the items listed next?

# compound Cc1cc(C)nc(SC2=C(Nc3cccc(Cl)c3)C(=O)N(Cc3ccccc3)C2=O)n1 ; its TGI = > 170 µM

# compound COC1CC2CCC(C)[C@](O)(O2)C(=O)C(=O)N2CCCCC2C(=O)OC(C(C)CC2CCC(O)C(OC)C2)CC(=O)C(C)C=C(C)C(OC(=O)CN(C)C)C(OC)C(=O)C(C)CC(C)/C=C/C=C/C=C\1C (stereo partly drawn) ; its TGI = 17.6 µM

# compound COc1ccc(-c2nc(-c3nc4cc(C)c(C)cc4[nH]3)cc3c2[nH]c2ccccc23)cc1 ; its TGI = 59.7 µM

# compound Cc1ccc(S(=O)(=O)n2cc(C(=O)C(=O)Nc3ccncc3)c3ccccc32)cc1 ; its TGI = 27.3 µM

# compound CC1(C)C2CCC13C(=O)C1OC3(C2)C2C(=O)c3c(O)ccc(O)c3C(=O)C12 (stereo not drawn) ; its TGI = > 100 µM

# compound COc1ccc(NC(C)=O)cc1N1C(=O)/C(=C\c2cc(OC)c(OC)c(OC)c2)S(=O)(=O)C1c1ccccc1 (stereo not drawn) ; its TGI = > 100 µM

# compound S=C1NN=C2C(=C3CCCC4C5CCCCC5N2C34)N1 (stereo not drawn) ; its TGI = > 100 µM

# compound COc1ccc(CCN(C)C(=O)CC(C#N)(c2ccccc2)c2ccc(OC)c(OC)c2)cc1OC (stereo not drawn) ; its TGI = > 100 µM

====

system: TK-10 renal; test: NCI tumour cell line growth inhibition, 48 h
Could you please report measured TGI for the items listed next?

Record for COc1cc2c(cc1OC)[C@@]1(C)C(=O)c3cc4c(cc3[C@H]1N(C)C2=O)OCO4 under target or system TK-10 renal: TGI reported as > 100 µM

Record for COC(=O)C(Cc1c[nH]c2ccccc12)NP(=O)(O)OCC1OC(n2cc(F)c(=O)[nH]c2=O)CC1O (stereo not given) under target or system TK-10 renal: TGI reported as > 100 µM

Record for C[C@H](CCC1=NCCN1)[C@H]1CC[C@H]2[C@@H]3CC[C@@H]4C[C@H](O)CC[C@]4(C)[C@H]3CC[C@]12C under target or system TK-10 renal: TGI reported as 23.2 µM

Record for CO[C@H]1CC[C@@]2(C)C(=CC[C@H]3[C@@H]4C[C@H](O)C[C@@]4(C)CC[C@@H]32)C1 under target or system TK-10 renal: TGI reported as 17.9 µM

Record for CN(C)CCN1C(=O)c2ccccc2C1(O)c1ccc(Cl)cc1 (stereo not given) under target or system TK-10 renal: TGI reported as > 100 µM

Record for O=C(NN1C(=O)c2ccccc2C1=O)c1ccccc1Nc1ccccc1C(=O)NN1C(=O)c2ccccc2C1=O under target or system TK-10 renal: TGI reported as > 100 µM

Record for Cc1cccc(N=C2c3cc([N+](=O)[O-])ccc3-c3c2cc([N+](=O)[O-])cc3[N+](=O)[O-])c1 under target or system TK-10 renal: TGI reported as > 100 µM

Record for CCOC(=O)/C(=C\NC(C)(C)C)c1nc2ccccc2o1 under target or system TK-10 renal: TGI reported as > 100 µM

Record for O=C(/C=C\Sc1nccc(C(F)(F)F)n1)c1ccc(Br)cc1 under target or system TK-10 renal: TGI reported as 59.6 µM

Record for CCn1c(=O)c2c3ccc(O)cc3oc2c2ccc(O)cc21 under target or system TK-10 renal: TGI reported as > 100 µM

Record for O=c1c2c3c(sc2nc2n1N=CN(c1ccc(Cl)cc1)C2)CCCC3 under target or system TK-10 renal: TGI reported as > 100 µM

Record for CCOC(=O)c1c(Cl)c2c(n1Cc1cc(OC)cc(OC)c1)-c1oncc1CCC2 under target or system TK-10 renal: TGI reported as > 100 µM

Record for CCC[CH2][Sn]([CH2]CCC)([S]C1=NCCS1)[S]C1=NCCS1 under target or system TK-10 renal: TGI reported as 1.11 µM

Record for COC(=O)/C(C#N)=C(\Nc1ccccc1)N1CCCCC1 under target or system TK-10 renal: TGI reported as > 100 µM

Record for Cc1ccc(C(=O)NC2CCCCC2)cc1-c1ccc(C(=O)NCC2CC2)cc1 under target or system TK-10 renal: TGI reported as > 25 µM

Record for C/C(=N/NC(=S)N1CCCC1)c1cccc(/C(C)=N\NC(=S)N2CCCC2)n1 under target or system TK-10 renal: TGI reported as 3.71 µM

Record for CC1C(=O)N(C)C2(CO)C(=O)O[C@H](C)C12O (stereo not given in full) under target or system TK-10 renal: TGI reported as > 100 µM

Record for CC(C)C(Cl)CC/C(CBr)=C(\Cl)CCl (stereo not given) under target or system TK-10 renal: TGI reported as 28 µM

Record for COc1ccccc1N1C(=O)/C(=C\c2cc(OC)c(OC)c(OC)c2)S(=O)(=O)C1c1ccccc1 (stereo not given) under target or system TK-10 renal: TGI reported as > 100 µM

Record for COc1ccc(-c2cc(-c3ccco3)c(C#N)c(=S)n2C2OC(CO)C(O)C(O)C2O)cc1 (stereo not given) under target or system TK-10 renal: TGI reported as > 100 µM
